- Measured Target: UniProt Q92630
- Sequence (Q92630 whole entry, looked up): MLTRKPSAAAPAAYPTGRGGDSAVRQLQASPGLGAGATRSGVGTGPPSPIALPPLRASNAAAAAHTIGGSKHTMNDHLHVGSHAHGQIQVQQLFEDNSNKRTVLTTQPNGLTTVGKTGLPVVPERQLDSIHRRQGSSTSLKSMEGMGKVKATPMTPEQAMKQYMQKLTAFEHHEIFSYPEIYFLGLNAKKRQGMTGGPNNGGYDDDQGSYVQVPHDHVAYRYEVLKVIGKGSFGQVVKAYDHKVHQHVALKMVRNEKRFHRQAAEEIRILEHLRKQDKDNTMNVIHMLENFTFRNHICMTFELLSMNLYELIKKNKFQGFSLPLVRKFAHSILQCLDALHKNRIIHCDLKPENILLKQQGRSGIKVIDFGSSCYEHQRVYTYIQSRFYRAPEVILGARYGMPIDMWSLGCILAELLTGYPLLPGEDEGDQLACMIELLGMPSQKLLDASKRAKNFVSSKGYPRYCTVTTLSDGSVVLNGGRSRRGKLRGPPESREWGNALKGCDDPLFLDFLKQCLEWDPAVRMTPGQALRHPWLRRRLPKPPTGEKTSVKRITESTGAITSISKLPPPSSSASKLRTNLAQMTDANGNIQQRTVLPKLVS
- Assay Method Text: Caliper, Mobility shift assay off-chip
- Test Parameters: compound 0.2 µM
Assay Readout: inhibition (%)
Field format: number, assumed %, no unit text.

## Task Hello, please tell me recorded inhibition for this one: CNC(=O)c1cc(Oc2ccc(NC(=O)Nc3ccc(Cl)c(C(F)(F)F)c3)cc2)ccn1
## Result 6.1

## Task Hello, please tell me recorded inhibition for this one: Cc1ccc(Nc2nccc(N(C)c3ccc4c(C)n(C)nc4c3)n2)cc1S(N)(=O)=O
## Result 4.1

## Task Hello, please tell me recorded inhibition for this one: CCN(CC)CCNC(=O)c1c(C)[nH]c(/C=C2\C(=O)Nc3ccc(F)cc32)c1C
## Result 25

## Task Hello, please tell me recorded inhibition for this one: COc1cc2c(Oc3ccc4[nH]c(C)cc4c3F)ncnc2cc1OCCCN1CCCC1
## Result -5.6

Just for reference, the kinase profiling compilation of Christmann-Franck et al. (2016) is where these values come from.
